Reference for the values: patent US20260042731A1

# Test system: Chenopodium album (CHEAL), common lambsquarters
# Experiment Notes: Postemergence herbicide evaluation, growth of Chenopodium album (CHEAL)
# Type: in vivo
# Reported Conditions: Chenopodium album, post-emergence, 504 h, 280 g ae/ha, 21 DAA, percent reduction in plant size relative to untreated control; read-out: Ave. CHEAL
# maps each entry to its pest or weed control at 280 g/ha
Give the value in % but do not write % after it.

C/C(C/C(C)=N/OC(=O)COc1ccc(Cl)cc1Cl)=N\OC(=O)COc1ccc(Cl)cc1Cl [Compound B6] : 93
C/C(N)=N/OC(=O)COc1ccc(Cl)cc1Cl [Compound A12] : 86
N/C(=N\OC(=O)COc1ccc(Cl)cc1Cl)c1ccco1 [Compound A5] : 68
Cn1c(O)c(C(=O)COc2ccc(Cl)cc2Cl)c2ccccc21 [Compound C1] : 77
CCOC(=O)C(=NOC(=O)COc1ccc(Cl)cc1Cl)C(=O)OCC [Compound A7] : 73

So for CCO/C(CC)=N\OC(=O)COc1ccc(Cl)cc1Cl [Compound A9] , the logged pest or weed control at 280 g/ha turned out to be 88

pest or weed control at 280 g/ha for O=C(Cc1ccccc1)NOC(=O)COc1ccc(Cl)cc1Cl [Compound A13] is 73

// pest or weed control at 280 g/ha lookup, compound = O=C(COc1ccc(Cl)cc1Cl)ON(Cc1ccccc1)Cc1ccccc1 [Compound A14] , result: 70

Form field pest or weed control at 280 g/ha, entry O=C(COc1ccc(Cl)cc1Cl)ONC(=O)c1ccc(C(=O)NOC(=O)COc2ccc(Cl)cc2Cl)cc1 [Compound B4] : 75

Recorded pest or weed control at 280 g/ha (compound CN(NC(=O)COc1ccc(Cl)cc1Cl)C(=O)c1ccccc1 [Compound D9] ): 95

Lab note: O=C(COc1ccc(Cl)cc1Cl)NNC(=O)c1ccccc1 [Compound D10] gave pest or weed control at 280 g/ha of 73

Memo: CN(OC(=O)COc1ccc(Cl)cc1Cl)C(=O)c1ccccc1 [Compound A16] , reported pest or weed control at 280 g/ha: 68

Documented pest or weed control at 280 g/ha of O=C(COc1ccc(Cl)cc1Cl)ON1C(=O)c2ccccc2C1=O [Compound A15] : 80

====

Reported pest or weed control at 560 g/ha values for a set of molecules
# Tested on: Abutilon theophrasti (ABUTH), velvetleaf
# Experiment Notes: Postemergence herbicide evaluation, growth of Abutilon theophrasti (ABUTH)
# Type: in vivo
# Reported Conditions: Abutilon theophrasti, post-emergence, 504 h, read-out: AVE. ABUTH
Response body: numeric value in %, unit text excluded.

Examples from the recorded data:
O=C(COc1ccc(Cl)cc1Cl)OCCOC(=O)COc1ccc(Cl)cc1Cl : 75
O=C(COc1ccc(Cl)cc1Cl)OCc1ccccc1 [Compound E4, Benzyl 2-(2,4-dichlorophenoxy)acetate] : 98
O=C(COc1ccc(Cl)cc1Cl)OCOC(=O)c1ccccc1 : 92
O=C(COc1ccc(Cl)cc1Cl)OCCOCCOCCOCCOC(=O)COc1ccc(Cl)cc1Cl : 97.5
O=C(COc1ccc(Cl)cc1Cl)OCCOCCOCCOC(=O)COc1ccc(Cl)cc1Cl : 62.5
O=C(COc1ccc(Cl)cc1Cl)n1cnc2ccccc21 : 98

Per the record, O=C(COc1ccc(Cl)cc1Cl)Nc1ccc(Cl)cc1 has pest or weed control at 560 g/ha of 53

// field: pest or weed control at 560 g/ha; key: O=C(COc1ccc(Cl)cc1Cl)OCCCCCOC(=O)COc1ccc(Cl)cc1Cl ; value = 99

Memo: N#C/C(=N\OC(=O)COc1ccc(Cl)cc1Cl)c1ccccc1 , reported pest or weed control at 560 g/ha: 94
